Data origin: paper PMC10786891

Target: T1, EsCas13d, nuclease-dead (Eubacterium siraeum, UniProt B0MS50, R295A;H300A;R849A;H854A)
T1 sequence: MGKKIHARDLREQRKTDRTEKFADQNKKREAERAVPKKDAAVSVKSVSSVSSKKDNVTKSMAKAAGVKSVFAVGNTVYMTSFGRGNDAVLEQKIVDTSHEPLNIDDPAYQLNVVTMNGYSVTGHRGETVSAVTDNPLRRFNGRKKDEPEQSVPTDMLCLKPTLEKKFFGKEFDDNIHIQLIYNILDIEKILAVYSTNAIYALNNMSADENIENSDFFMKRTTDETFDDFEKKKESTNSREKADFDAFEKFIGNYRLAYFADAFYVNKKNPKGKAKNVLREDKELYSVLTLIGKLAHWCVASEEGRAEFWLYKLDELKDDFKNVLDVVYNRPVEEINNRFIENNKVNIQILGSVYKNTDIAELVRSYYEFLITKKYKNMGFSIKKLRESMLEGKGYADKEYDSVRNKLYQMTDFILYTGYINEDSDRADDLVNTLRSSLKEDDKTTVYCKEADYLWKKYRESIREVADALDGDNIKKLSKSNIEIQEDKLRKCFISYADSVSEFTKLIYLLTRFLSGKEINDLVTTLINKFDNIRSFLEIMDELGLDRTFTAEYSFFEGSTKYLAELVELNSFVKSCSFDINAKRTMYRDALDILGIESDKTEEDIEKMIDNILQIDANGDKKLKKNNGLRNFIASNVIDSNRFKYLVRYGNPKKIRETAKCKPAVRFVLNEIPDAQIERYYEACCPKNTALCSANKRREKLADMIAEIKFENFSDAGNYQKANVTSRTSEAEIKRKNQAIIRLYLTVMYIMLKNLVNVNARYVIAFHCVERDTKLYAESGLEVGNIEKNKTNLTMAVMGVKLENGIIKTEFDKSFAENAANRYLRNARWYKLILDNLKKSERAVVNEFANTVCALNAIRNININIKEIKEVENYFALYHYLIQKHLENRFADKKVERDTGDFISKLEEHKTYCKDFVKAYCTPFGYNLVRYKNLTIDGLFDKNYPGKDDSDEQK
Assay: crRNA (strand 1, pre-loaded); Mg2+; 40 mM Tris-HCl pH 7.5, 150 mM NaCl, 6 mM MgCl2, 1 mM DTT, 0.1% Tween-20, 0.2 mg/ml BSA; 25 C; 10 min per concentration, then washed
Conditions: tags: His6-TwinStrep-SUMO cleaved; N-terminal SNAP kept (SNAP-Surface 488); label: 3' end held by stalled T7 RNA polymerase
property: pKd
Scale note: pKd = -log10(concentration in M).

Consider the following illustrative entries.
binder="target 1 U10G,U11G (mixed) RNA 1: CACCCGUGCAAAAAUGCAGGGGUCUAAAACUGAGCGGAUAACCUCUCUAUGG RNA 2: GGGAAUGGAUCCACAUCUACGAAUUCGUACCAUAGAGAGGGGAUCCGCUCACCGAGAUCGGAAGAGCACACGU" property=pKd endpoint_result=7.49
binder="target 1 insA 3' of 22,insC 3' of 19 (mixed) RNA 1: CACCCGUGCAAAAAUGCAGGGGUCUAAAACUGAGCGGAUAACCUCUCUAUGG RNA 2: GGGAAUGGAUCCACAUCUACGAAUUCGUACACAUCAGAGAGGUUAUCCGCUCACCGAGAUCGGAAGAGCACACGU" property=pKd endpoint_result=7.29

Task item: Need pKd, item target 1 insG 3' of 19,insG 3' of 1 (mixed) RNA 1: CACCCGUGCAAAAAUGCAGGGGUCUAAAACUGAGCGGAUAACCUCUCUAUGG RNA 2: GGGAAUGGAUCCACAUCUACGAAUUCGUACCAUGAGAGAGGUUAUCCGCUCAGCCGAGAUCGGAAGAGCACACGU
Reply: 7.06

Task item: Need pKd, item target 1 MT 5'PFS GGA 3'PFS AGG (mixed) RNA 1: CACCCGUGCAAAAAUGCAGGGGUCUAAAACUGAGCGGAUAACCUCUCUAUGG RNA 2: GGGAAUGGAUCCACAUCUACGAAUUCGGACCAUAGAGAGGUUAUCCGCUCAAGGAGAUCGGAAGAGCACACGU
Reply: 7.51

Task item: Need pKd, item target 3 insG 3' of 7,insU 3' of 4 (mixed) RNA 1: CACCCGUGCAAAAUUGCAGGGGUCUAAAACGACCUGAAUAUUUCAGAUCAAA RNA 2: GGGAAUGGAUCCACAUCUACGAAUUCGUUUUUGAUCUGAAAUAUUGCAGUGUCUGCAGAUCGGAAGAGCACACGU
Reply: 7.49

Task item: Need pKd, item target 1 insU 3' of 17,insG 3' of 9 (mixed) RNA 1: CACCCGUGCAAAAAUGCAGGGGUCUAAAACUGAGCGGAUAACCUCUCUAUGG RNA 2: GGGAAUGGAUCCACAUCUACGAAUUCGUACCAUAGUAGAGGUUAGUCCGCUCACCGAGAUCGGAAGAGCACACGU
Reply: 7.42

Task item: Need pKd, item target 1 C7U,A20U (mixed) RNA 1: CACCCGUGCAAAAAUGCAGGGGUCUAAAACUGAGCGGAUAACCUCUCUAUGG RNA 2: GGGAAUGGAUCCACAUCUACGAAUUCGUACCUUAGAGAGGUUAUUCGCUCACCGAGAUCGGAAGAGCACACGU
Reply: 7.39

Task item: Need pKd, item target 2 MT 5'PFS UAU 3'PFS ACG (mixed) RNA 1: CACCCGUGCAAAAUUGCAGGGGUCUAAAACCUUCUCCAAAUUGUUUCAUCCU RNA 2: GGGAAUGGAUCCACAUCUACGAAUUCUAUAGGAUGAAACAAUUUGGAGAAGACGAGAUCGGAAGAGCACACGU
Reply: 7.24

Task item: Need pKd, item target 1 U3A,G15C (mixed) RNA 1: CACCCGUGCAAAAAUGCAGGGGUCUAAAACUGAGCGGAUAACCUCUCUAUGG RNA 2: GGGAAUGGAUCCACAUCUACGAAUUCGUACCAUAGACAGGUUAUCCGCACACCGAGAUCGGAAGAGCACACGU
Reply: 7.48

Task item: Need pKd, item target 1 insC 3' of 19,insG 3' of 14 (mixed) RNA 1: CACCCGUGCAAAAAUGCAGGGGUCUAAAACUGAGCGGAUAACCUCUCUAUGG RNA 2: GGGAAUGGAUCCACAUCUACGAAUUCGUACCAUCAGAGAGGGUUAUCCGCUCACCGAGAUCGGAAGAGCACACGU
Reply: 7.14

Task item: Need pKd, item target 3 insG 3' of 8,insU 3' of 4 (mixed) RNA 1: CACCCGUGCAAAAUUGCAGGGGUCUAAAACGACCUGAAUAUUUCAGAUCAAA RNA 2: GGGAAUGGAUCCACAUCUACGAAUUCGUUUUUGAUCUGAAAUAUGUCAGUGUCUGCAGAUCGGAAGAGCACACGU
Reply: 7.67
